# Experiment description: Metabolic stability in human blood
# Type: ADME
# Stated conditions: read-out: Stability (converted)
Result type: half-life (h)
Unit h implied. Number only.

IN: Item Cc1cc(Cl)c(OCCO)cc1NC(=O)C1=CNC(=O)C[C@H]1c1ccc(F)cc1 has what recorded half-life?
OUT: 3

---

# Test system: P2X purinoceptor 1 (Homo sapiens)
# Sequence (P51575 whole entry): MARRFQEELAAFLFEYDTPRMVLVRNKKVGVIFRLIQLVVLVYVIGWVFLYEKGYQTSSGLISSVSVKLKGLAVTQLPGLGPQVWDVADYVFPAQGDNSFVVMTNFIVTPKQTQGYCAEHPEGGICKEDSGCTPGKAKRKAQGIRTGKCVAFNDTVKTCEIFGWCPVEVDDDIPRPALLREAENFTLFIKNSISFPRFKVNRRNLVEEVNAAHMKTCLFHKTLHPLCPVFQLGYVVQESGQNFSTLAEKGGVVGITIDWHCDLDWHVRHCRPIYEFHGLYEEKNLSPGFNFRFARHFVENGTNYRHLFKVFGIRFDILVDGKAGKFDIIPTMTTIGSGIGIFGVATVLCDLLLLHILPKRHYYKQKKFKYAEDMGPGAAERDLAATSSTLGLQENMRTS
# Experiment description: Inhibition of P2X1R (unknown origin)
pIC50: −log10 of the molar value.
Result type: pIC50

IN: Item Cc1cc(Cl)c(OCCO)cc1NC(=O)C1=CNC(=O)C[C@H]1c1ccc(F)cc1 has what recorded pIC50?
OUT: < 5.00

---

# Test system: Salmonella typhimurium
# Experiment description: Genotoxicity in Salmonella typhimurium by Ames test
# Assay type: toxicity, organism-based
# Stated conditions: salmonella enterica subsp. enterica serovar typhimurium
Result type: Activity

Worked cases, answers included:
{"Item smiles": "Cc1ccc(-c2ccn[nH]c2=O)cc1NC(=O)C1=CN(C)C(=O)C[C@H]1c1ccc(F)cc1", "Activity": "Toxic"}
{"Item smiles": "Cc1ccc(-n2ccccc2=O)cc1NC(=O)C1=CN(C)C(=O)N[C@H]1c1ccc(F)cc1", "Activity": "Non-toxic"}
{"Item smiles": "Cc1ccc(-n2ncccc2=O)cc1NC(=O)C1=CN(C)C(=O)C[C@H]1c1ccc(F)cc1", "Activity": "Non-toxic"}
{"Item smiles": "CN1C=C(C(=O)Nc2cc(-c3ccn[nH]c3=O)ccc2F)[C@H](c2ccc(F)cc2)CC1=O", "Activity": "Non-toxic"}

Read the next record carefully.
IN: Form: Entry = Cc1cc(F)c(-c2ccnn(C)c2=O)cc1NC(=O)C1=CN(C)C(=O)C[C@H]1c1ccc(F)cc1 | System = Salmonella typhimurium | Activity = ____
OUT: Non-toxic

---

# Test system: Cytochrome P450 2C9 (Homo sapiens, UniProt P11712)
# Sequence (P11712 whole entry): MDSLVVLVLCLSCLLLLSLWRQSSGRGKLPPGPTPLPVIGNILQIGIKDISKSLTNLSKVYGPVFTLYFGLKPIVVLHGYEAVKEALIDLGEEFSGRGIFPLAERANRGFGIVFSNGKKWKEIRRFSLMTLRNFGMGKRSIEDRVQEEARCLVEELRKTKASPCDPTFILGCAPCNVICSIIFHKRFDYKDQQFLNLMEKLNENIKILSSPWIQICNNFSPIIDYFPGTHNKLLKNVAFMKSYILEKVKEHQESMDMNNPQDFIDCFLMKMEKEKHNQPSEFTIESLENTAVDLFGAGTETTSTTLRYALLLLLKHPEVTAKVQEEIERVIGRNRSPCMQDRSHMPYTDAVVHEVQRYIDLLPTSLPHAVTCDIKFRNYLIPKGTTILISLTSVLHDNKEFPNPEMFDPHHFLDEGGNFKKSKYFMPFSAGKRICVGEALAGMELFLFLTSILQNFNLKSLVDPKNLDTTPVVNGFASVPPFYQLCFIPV
pIC50: −log10 of the molar value.
Result type: pIC50

IN: Form: Entry = COC[C@H](O)Cn1c(=O)cnn(-c2ccc(C)c(NC(=O)C3=CN(C)C(=O)C[C@H]3c3ccc(F)cc3)c2)c1=O | System = Cytochrome P450 2C9 (Homo sapiens, UniProt P11712) | pIC50 = ____
OUT: < 4.30

---

# maps each entry to its log10 of IC50
# Test system: P2X purinoceptor 7 (Homo sapiens, UniProt Q99572)
# Sequence (Q99572 whole entry): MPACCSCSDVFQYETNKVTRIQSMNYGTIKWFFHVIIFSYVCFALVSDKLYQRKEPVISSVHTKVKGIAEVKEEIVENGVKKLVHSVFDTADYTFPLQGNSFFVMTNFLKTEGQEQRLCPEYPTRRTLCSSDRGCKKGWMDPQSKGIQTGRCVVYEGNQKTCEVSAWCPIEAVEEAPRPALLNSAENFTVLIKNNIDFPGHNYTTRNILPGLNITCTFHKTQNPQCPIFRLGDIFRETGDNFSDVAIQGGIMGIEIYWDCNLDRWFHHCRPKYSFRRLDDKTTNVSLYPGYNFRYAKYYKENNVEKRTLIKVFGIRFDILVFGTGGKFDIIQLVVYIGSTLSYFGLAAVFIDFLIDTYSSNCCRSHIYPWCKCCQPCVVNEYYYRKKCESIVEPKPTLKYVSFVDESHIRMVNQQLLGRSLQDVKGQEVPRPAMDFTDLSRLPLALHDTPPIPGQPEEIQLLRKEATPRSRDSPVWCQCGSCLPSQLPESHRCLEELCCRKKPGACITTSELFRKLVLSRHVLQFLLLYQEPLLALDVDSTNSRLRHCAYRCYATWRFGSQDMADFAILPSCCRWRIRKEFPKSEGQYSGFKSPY
# Experiment description: Antagonist activity at human P2X7R expressed in BzATP-stimulated human 1321N1 cells incubated for 20 mins followed by BzATP stimulation measured every 1 sec for 60 secs followed by 3 sec intervals for 4 mins by FLIPR Ca2+ assay in presence of ionomycin
# Format: cell-based
# log10 transformed; quantity=IC50; unit=nM

Worked cases, answers included:
{"Molecule": "COc1cc(NC(=O)N2C=CC(=O)C[C@H]2c2ccccc2)c(Br)cc1Cl", "log10 of IC50": 1.52}
{"Molecule": "O=C1C=CN(C(=O)Nc2cc(OCCO)c(Cl)cc2Br)[C@H](c2ccc(F)cc2)C1", "log10 of IC50": 1.60}
{"Molecule": "COc1cc(NC(=O)N2C=CC(=O)C[C@H]2c2ccc(F)cc2)c(Br)cc1F", "log10 of IC50": 1.51}
{"Molecule": "CN1C=C(C(=O)Nc2cc(-c3ccn[nH]c3=O)ccc2F)[C@H](c2ccc(F)cc2)CC1=O", "log10 of IC50": 1.41}
{"Molecule": "Cc1cc(F)c(-c2ccnn(C)c2=O)cc1NC(=O)C1=CN(C)C(=O)C[C@H]1c1ccc(F)cc1", "log10 of IC50": 0.90}
{"Molecule": "COc1cc(C)c(C)c(NC(=O)C2=CNC(=O)C[C@H]2c2ccc(F)cc2)c1", "log10 of IC50": 0.95}

IN: Item COc1cc(Br)c(NC(=O)N2C=CC(=O)C[C@H]2c2ccc(F)cc2)cc1OC has what recorded log10 of IC50?
OUT: 0.95

IN: # repeat for COc1cc(I)c(CC(=O)N2C=CC(=O)C[C@H]2c2ccccc2)cc1OC
OUT: 1.58

IN: # repeat for Cc1cc2cnn(CCO)c2cc1NC(=O)C1=CNC(=O)C[C@H]1c1ccc(F)cc1
OUT: 1.36

IN: # repeat for Cc1ccc(-n2ccccc2=O)cc1NC(=O)C1=CN(C)C(=O)N[C@H]1c1ccc(F)cc1
OUT: 1.34

IN: # repeat for COc1cc(I)c(CC(=O)N2C=CC(=O)C[C@@H]2c2ccccc2)cc1OC
OUT: 3.58

IN: # repeat for COc1cc(C)c(NC(=O)N2C=CC(=O)C[C@H]2c2ccc(F)cc2)cc1OC
OUT: 1.08
